Entries and their melting point

N#C/C(=C/c1ccc(Cl)cc1)c1nc(-c2ccccc2)cs1 | 103 to 105 °C
CCc1cc(Cc2cc(CC)c(N)c(CC)c2)cc(CC)c1N | 88 to 91 °C
N#CSc1ccc([N+](=O)[O-])c(C(=O)O)c1 | 156 to 160 °C
CC(C)(C)c1cc(C(C)(C)C)c2oc(C(=O)O)cc(=O)c2c1 | 229 to 236 °C
Cc1ccc(NC(=O)C(O)C(O)C(=O)O)cc1 (single isomer, unassigned; (-)) | 191 to 192 °C

Continue with the next compound.
Given Cc1ccc(Sc2ncccc2C(=O)Cl)cc1 , respond with its melting point. 102 to 104 °C
